meta.source: patent US20090130105A1

Molecular target: T1, human IGF-1R(1-903)-Fc (human, UniProt P08069 31-933)
T1 construct: also called hIGF-1R-Fc; SDWT; not shown: human IgG1 Fc, C-terminal tag
T1 sequence (P08069 31-933): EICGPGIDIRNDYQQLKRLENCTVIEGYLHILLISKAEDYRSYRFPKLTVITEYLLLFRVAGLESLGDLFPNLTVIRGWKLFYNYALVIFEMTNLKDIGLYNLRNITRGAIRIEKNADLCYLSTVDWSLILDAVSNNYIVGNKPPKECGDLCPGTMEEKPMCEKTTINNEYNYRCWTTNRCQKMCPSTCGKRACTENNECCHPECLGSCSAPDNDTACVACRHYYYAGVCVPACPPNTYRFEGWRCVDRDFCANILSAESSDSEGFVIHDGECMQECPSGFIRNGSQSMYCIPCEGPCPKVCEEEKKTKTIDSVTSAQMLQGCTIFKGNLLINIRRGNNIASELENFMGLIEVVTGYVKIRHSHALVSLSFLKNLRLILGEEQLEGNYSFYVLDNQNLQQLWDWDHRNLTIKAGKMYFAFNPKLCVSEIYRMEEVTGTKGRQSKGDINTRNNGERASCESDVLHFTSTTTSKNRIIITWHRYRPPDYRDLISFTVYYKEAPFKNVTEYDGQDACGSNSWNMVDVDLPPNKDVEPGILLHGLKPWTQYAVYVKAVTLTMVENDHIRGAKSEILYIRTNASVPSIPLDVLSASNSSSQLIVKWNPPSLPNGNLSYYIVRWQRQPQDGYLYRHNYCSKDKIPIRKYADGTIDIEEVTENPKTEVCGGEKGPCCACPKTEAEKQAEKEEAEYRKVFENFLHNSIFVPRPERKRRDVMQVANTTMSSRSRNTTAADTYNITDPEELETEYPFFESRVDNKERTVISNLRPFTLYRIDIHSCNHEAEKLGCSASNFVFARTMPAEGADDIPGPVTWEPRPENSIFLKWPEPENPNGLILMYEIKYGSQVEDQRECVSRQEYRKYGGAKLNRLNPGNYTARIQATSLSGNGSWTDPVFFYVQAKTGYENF
Experiment: biolayer interferometry (Octet), IGF-1R Fc on Protein A sensors, scFv culture supernatant
Set-up: unit not given here
observed.property: Kd (1/sec), off-rate as tabulated (XWU092 = 1.00)

Entry MJF047, C06 (VL/GS3/VH) scFv with VL I83G (scFv, Kabat positions) scFv: DIQMTQSPLSLSASVGDRVTITCQASRDIRNYLNWYQQKPGKAPKLLIYDASSLQTGVPSRFGGSGSGTDFSFTIGSLQPEDGATYYCQQFDSLPHTFGQGTKLEIKGGGGSGGGGSGGGGSEVQLLESGGGLVQPGGSLRLSCAASGFTFSIYRMQWVRQAPGKGLEWVSGISPSGGTTWYADSVKGRFTISRDNSKNTLYLQMNSLRAEDTAVYYCARWSGGSGYAFDIWGQGTMVTVSSDDDKSFLEQKLISEEDLNSAVDHHHHHH ; Kd (1/sec), off-rate as tabulated (XWU092 = 1.00) = 1.44

Kd (1/sec), off-rate as tabulated (XWU092 = 1.00) in this record for MJF015, C06 (VL/GS3/VH) scFv with VH W47F (scFv, name in Kabat numbering, Kabat positions) scFv: DIQMTQSPLSLSASVGDRVTITCQASRDIRNYLNWYQQKPGKAPKLLIYDASSLQTGVPSRFGGSGSGTDFSFTIGSLQPEDIATYYCQQFDSLPHTFGQGTKLEIKGGGGSGGGGSGGGGSEVQLLESGGGLVQPGGSLRLSCAASGFTFSIYRMQWVRQAPGKGLEFVSGISPSGGTTWYADSVKGRFTISRDNSKNTLYLQMNSLRAEDTAVYYCARWSGGSGYAFDIWGQGTMVTVSSDDDKSFLEQKLISEEDLNSAVDHHHHHH : 1.37
